target: purified Ndh (Mtb recombinant MBP tagged Ndh-2 enzyme, MBP-Ndh) (Mycobacterium tuberculosis (strain ATCC 25618 / H37Rv), UniProt P95160); test: Biochemical evaluation of MBP-Ndh inhibition (NADH oxidation with menadione); conditions: NADH 500 μM, menadione 100 μM; read-out: IC50 (μM) purified Ndh
Sequence (P95160 whole entry, looked up): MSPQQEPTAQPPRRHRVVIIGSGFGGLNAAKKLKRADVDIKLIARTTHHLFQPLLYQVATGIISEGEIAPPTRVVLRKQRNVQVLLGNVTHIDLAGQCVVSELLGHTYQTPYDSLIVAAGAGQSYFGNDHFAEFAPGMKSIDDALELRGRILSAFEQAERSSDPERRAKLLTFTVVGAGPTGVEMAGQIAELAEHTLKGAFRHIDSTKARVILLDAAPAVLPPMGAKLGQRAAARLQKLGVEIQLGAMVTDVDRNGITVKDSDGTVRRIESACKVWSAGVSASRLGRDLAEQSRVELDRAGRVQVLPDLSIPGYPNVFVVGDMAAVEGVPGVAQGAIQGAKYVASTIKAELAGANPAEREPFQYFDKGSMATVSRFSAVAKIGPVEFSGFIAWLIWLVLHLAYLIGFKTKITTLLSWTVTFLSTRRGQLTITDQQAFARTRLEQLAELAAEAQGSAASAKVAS
Please provide measured IC50 for the entries that follow.

q: # lookup: IC50 of CC(C)[C@H]1CO[C@]23CCN(c4ccccc4)C[C@H]2CCC(=O)N13
a: 0.1 to 1 µM

q: Continue with CC(C)(C)[C@H]1CO[C@]23CCN(Cc4ccccc4)C[C@H]2CCC(=O)N13
a: > 1 µM

q: Continue with CC(C)[C@H]1CO[C@]23CCN(CCc4ccccc4)C[C@H]2CCC(=O)N13
a: 0.1 to 1 µM

q: Continue with CC(C)[C@H]1CO[C@]23CCN(Cc4ccccc4)C[C@H]2CCC(=S)N13
a: 0.1 to 1 µM

q: Continue with CC(C)[C@H]1CS[C@]23CCN(Cc4ccccc4)C[C@H]2CCC(=O)N13
a: > 1 µM

###

Please provide measured MIC for the entries that follow.
test system: Mtb H37Rv-WT; assay: MIC by resazurin microtiter assay (REMA) against Mtb; assay type: cell-based; details: Mycobacterium tuberculosis, 144 h, REMA, 37° C., 6 days, read-out: MIC (μM) H37Rv-WT

q: # lookup: MIC of CC(C)[C@H]1CO[C@]23CCN(S(=O)(=O)c4ccc(C(F)(F)F)cc4)C[C@H]2CCC(=O)N13
a: 1 to 10 µM

q: Continue with CC(C)[C@H]1CO[C@]23CCN(Cc4ccc(C(F)(F)F)cc4)[C@H]2CCC(=O)N13
a: < 1 µM

q: Continue with CC(C)[C@H]1CO[C@]23CCN(Cc4ccc(C(F)(F)F)cc4C(F)(F)F)C[C@H]2CCC(=O)N13
a: < 1 µM

q: Continue with CC(C)[C@H]1CO[C@]23CCN(Cc4ccc5ncccc5c4)C[C@H]2CCC(=O)N13
a: 1 to 10 µM

q: Continue with CC(C)[C@H]1CO[C@]23CCN(Cc4ccc(O)cc4)C[C@H]2CCC(=O)N13
a: > 10 µM

q: Continue with CC(C)[C@H]1CO[C@]23CCN(S(=O)(=O)CCCc4ccc(C(F)(F)F)cc4)C[C@H]2CCC(=O)N13
a: < 1 µM

q: Continue with CC(C)[C@H]1CO[C@]23CCN(S(=O)(=O)CCc4ccc(C(F)(F)F)cc4)C[C@H]2CCC(=O)N13
a: < 1 µM

q: Continue with CC(C)[C@H]1CO[C@]23CCN(S(=O)(=O)Cc4ccc(C(F)(F)F)cc4)C[C@H]2CCC(=O)N13
a: < 1 µM
